Source: the supplement of paper PMC4862054

Reported normalised response values for the following molecules.
System: CAL-120
Experiment: normalised response (% of control), CellTox Green; higher = less cell death (100 = DMSO, 0 = benzethonium chloride kill control)
Details: incubation time: 72 h

# Molecule, Units of measure, normalised response
measured = [
    ("C[C@@H](Oc1cc(-c2cnn(C3CCNCC3)c2)cnc1N)c1c(Cl)ccc(F)c1Cl [Crizotinib] (1000 nM)", "%", 102),
    ("CCC1(c2ccc(N)cc2)CCC(=O)NC1=O (centres undefined) [Aminoglutethimide] (100 nM)", "%", 98.6),
    ("N.N.[Cl][Pt][Cl] [Cisplatin] (1000 nM)", "%", 106),
    ("CCCCCCCCCCCCCCCCCCOP(=O)([O-])OC1CC[N+](C)(C)CC1 [Perifosine] (25 nM)", "%", 103),
    ("CC(=O)Nc1ccc(C(=O)Nc2ccccc2N)cc1 [Tacedinaline] (100 nM)", "%", 101),
    ("O=C1CCC(N2C(=O)c3ccccc3C2=O)C(=O)N1 (centres undefined) [Thalidomide] (1000 nM)", "%", 101),
    ("CC(=O)Nc1ccc(C(=O)Nc2ccccc2N)cc1 [Tacedinaline] (10 nM)", "%", 98.8),
    ("CN(C)/N=N/c1[nH]cnc1C(N)=O [Dacarbazine] (10000 nM)", "%", 105),
    ("CCC1(c2ccc(N)cc2)CCC(=O)NC1=O (centres undefined) [Aminoglutethimide] (10000 nM)", "%", 99.7),
]

###

Tested on: Hs578T
Assay: normalised response (% of control), CellTiter-Glo; higher = more viable cells (100 = DMSO, 0 = benzethonium chloride kill control)
Conditions: incubation time: 72 h

# Compound, normalised response (%)
rows = [
    ("CS(=O)(=O)c1ccc(C2=C(c3ccccc3)C(=O)OC2)cc1 [Rofecoxib] (100 nM)", 109),
    ("O=C1CCC(N2C(=O)c3ccccc3C2=O)C(=O)N1 (stereo not drawn) [Thalidomide] (100 nM)", 94.5),
    ("N.N.[Cl][Pt][Cl] [Cisplatin] (10 nM)", 96.4),
    ("CN(N=O)C(=O)N[C@@H](C=O)[C@@H](O)[C@H](O)[C@H](O)CO [Streptozocin] (100 nM)", 109),
    ("N#CCNC(=O)c1ccc(-c2ccnc(Nc3ccc(N4CCOCC4)cc3)n2)cc1 [Momelotinib] (100 nM)", 102),
    ("C#Cc1cccc(Nc2ncnc3cc(OCCOC)c(OCCOC)cc23)c1 [Erlotinib] (100 nM)", 100),
    ("CCCCCCCCCCCCCCCCCCOP(=O)([O-])OC1CC[N+](C)(C)CC1 [Perifosine] (25 nM)", 100),
    ("CCC1=C[C@@H]2CN(C1)Cc1c([nH]c3ccccc13)[C@@](C(=O)OC)(c1cc3c(cc1OC)N(C)[C@H]1[C@@](O)(C(=O)OC)[C@H](OC(C)=O)[C@]4(CC)C=CCN5CC[C@]31[C@@H]54)C2 [Vinorelbine] (100 nM)", 48.1),
]

###

Tested on: MDA-MB-436
Assay: drug sensitivity score (DSS), CellTiter-Glo (DSS (AUC-based score)); higher = stronger drug effect (viability inhibition or cytotoxicity); extreme values may be limits of the assay
Conditions: incubation time: 72 h
Reported drug sensitivity score values for the following compounds.

# Compound, drug sensitivity score
data = [
    ("Oc1nc(-c2ccc(C(F)(F)F)cc2)nc2c1CSCC2", 0),
    ("N#CCNC(=O)c1ccc(-c2ccnc(Nc3ccc(N4CCOCC4)cc3)n2)cc1", 0),
    ("N[C@@H](CSC(c1ccccc1)(c1ccccc1)c1ccccc1)C(=O)O", 0),
    ("O=C1CCC(N2C(=O)c3ccccc3C2=O)C(=O)N1 (stereo unspecified) [Thalidomide]", 0),
    ("CC1(C)NC(=O)N(c2ccc([N+](=O)[O-])c(C(F)(F)F)c2)C1=O [Nilutamide]", 0),
    ("C[C@]12CC[C@@H]3c4ccc(O)cc4C[C@@H](CCCCCCCCC[S+]([O-])CCCC(F)(F)C(F)(F)F)[C@H]3[C@@H]1CC[C@@H]2O (stereo partly specified)", 0),
    ("CN[C@@H]1C[C@H]2O[C@@](C)([C@@H]1OC)n1c3ccccc3c3c4c(c5c6ccccc6n2c5c31)C(=O)N[C@H]4O", 20.9),
    ("C=C(c1ccc(C(=O)O)cc1)c1cc2c(cc1C)C(C)(C)CCC2(C)C", 0),
    ("CO[C@H]1/C=C\\C=C(/C)C(=O)NC2=CC(=O)C(NCCN(C)C)=C(C[C@@H](C)C[C@H](OC)[C@H](O)[C@@H](C)/C=C(\\C)[C@@H]1OC(N)=O)C2=O", 13.1),
    ("O=C(O)c1ccc(-c2c[nH]c3ncc(-c4ccccc4)cc23)cc1C1CCCC1", 0),
    ("N.N.[Cl][Pt][Cl] [Cisplatin]", 0),
]

###

Test system: MDA-MB-231
Experiment: normalised viability (% of control), CellTiter-Blue; higher = more viable cells (about 100 = DMSO control)
Details: 10000 nM; incubation time: 72 h
Reported normalised viability values for the following compounds.
Readout type: normalised viability (%)

# Compound, Units of measure, Val
data = [
    ("C[C@]12CC[C@@H]3c4ccc(O)cc4C[C@@H](CCCCCCCCC[S+]([O-])CCCC(F)(F)C(F)(F)F)[C@H]3[C@@H]1CC[C@@H]2O (some centres undefined)", "%", 90.2),
    ("O=C1CCC(N2C(=O)c3ccccc3C2=O)C(=O)N1 (centres undefined) [Thalidomide]", "%", 124),
    ("COc1cc([C@@H]2c3cc4c(cc3[C@@H](O[C@@H]3O[C@@H]5CO[C@@H](C)O[C@H]5[C@H](O)[C@H]3O)[C@H]3COC(=O)[C@H]23)OCO4)cc(OC)c1O [Etoposide]", "%", 66.1),
    ("CC(C)Cn1cnc2c(N)nc3ccccc3c21", "%", 107),
]

###

System: CAL-85-1
Experiment: normalised response (% of control), CellTiter-Glo; higher = more viable cells (100 = DMSO, 0 = benzethonium chloride kill control)
Conditions: incubation time: 72 h
Reported normalised response values for the following compounds.
Readout type: normalised response (%)

# Compound, Readout type, Units of measure, Val
measured = [
    ("N.N.[Cl][Pt][Cl] [Cisplatin] (100 nM)", "normalised response", "%", 96.2),
    ("N#CCNC(=O)c1ccc(-c2ccnc(Nc3ccc(N4CCOCC4)cc3)n2)cc1 [Momelotinib] (10 nM)", "normalised response", "%", 97.1),
    ("O=C(CCCCCCC(=O)Nc1ccc([C@H]2O[C@@H](CSc3nc(-c4ccccc4)c(-c4ccccc4)o3)C[C@@H](c3ccc(CO)cc3)O2)cc1)NO [Tubacin] (1000 nM)", "normalised response", "%", 72.2),
    ("CCC(C)(C)C(=O)O[C@H]1C[C@@H](C)C=C2C=C[C@H](C)[C@H](CC[C@@H]3C[C@@H](O)CC(=O)O3)[C@H]21 [Simvastatin] (1 nM)", "normalised response", "%", 96.8),
    ("N[C@@H](CSC(c1ccccc1)(c1ccccc1)c1ccccc1)C(=O)O [S-trityl-L-cysteine] (4 nM)", "normalised response", "%", 101),
    ("COc1cc2nccc(Oc3ccc(NC(=O)C4(C(=O)Nc5ccc(F)cc5)CC4)cc3)c2cc1OC [Cabozantinib] (1 nM)", "normalised response", "%", 96.1),
    ("Clc1ccc(Nc2nnc(Cc3ccncc3)c3ccccc23)cc1 [Vatalanib] (10 nM)", "normalised response", "%", 100),
    ("O=P1(NCCCl)OCCCN1CCCl (stereo unspecified) [Ifosfamide] (1 nM)", "normalised response", "%", 93.9),
    ("C[C@@H](Oc1cc(-c2cnn(C3CCNCC3)c2)cnc1N)c1c(Cl)ccc(F)c1Cl [Crizotinib] (0.1 nM)", "normalised response", "%", 92.6),
    ("Cc1ccc(-n2nc(C(C)(C)C)cc2NC(=O)Nc2ccc(OCCN3CCOCC3)c3ccccc23)cc1 [Doramapimod] (1 nM)", "normalised response", "%", 91.3),
    ("CCC1(c2ccc(N)cc2)CCC(=O)NC1=O (stereo unspecified) [Aminoglutethimide] (1000 nM)", "normalised response", "%", 103),
    ("COc1cc2ncnc(Nc3ccc(F)c(Cl)c3)c2cc1NC(=O)/C=C/CN1CCCCC1 [Dacomitinib] (1 nM)", "normalised response", "%", 91.2),
    ("CNCc1ccc(-c2[nH]c3cc(F)cc4c3c2CCNC4=O)cc1 [Rucaparib] (1 nM)", "normalised response", "%", 100),
    ("C#Cc1cccc(Nc2ncnc3cc(OCCOC)c(OCCOC)cc23)c1 [Erlotinib] (1000 nM)", "normalised response", "%", 60.2),
    ("Clc1ccc(Nc2nnc(Cc3ccncc3)c3ccccc23)cc1 [Vatalanib] (1 nM)", "normalised response", "%", 102),
    ("Cc1ccc(-n2nc(C(C)(C)C)cc2NC(=O)Nc2ccc(OCCN3CCOCC3)c3ccccc23)cc1 [Doramapimod] (10 nM)", "normalised response", "%", 96),
]
